# Test system: VDR:RXRa (NR concentration 270 nM, RXRa partner concentration 90 nM)
# experiment description: PBM binding z-score (relative to random genomic background probes); higher = stronger binding; sequences stand for … in GC…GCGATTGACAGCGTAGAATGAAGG
I'd appreciate it if you could supply PBM binding z-score values for the items below.

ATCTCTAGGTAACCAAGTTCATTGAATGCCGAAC 5.68
CGAACGAGGGCATGAGTTGATAGCCAATGCCGAT 1.09
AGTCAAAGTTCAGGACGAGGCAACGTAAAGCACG 1.93
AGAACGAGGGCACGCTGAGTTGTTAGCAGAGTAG 1.6
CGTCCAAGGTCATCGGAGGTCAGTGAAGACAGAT 7.04
CGATCTAGGTCAAGGACAGTGAATCTCCGCACGC 0.643

Entry GCGACTGGGGCAAAGCAGGTTACTATAAGGTTGG ; assay system VDR:RXRa (NR concentration 270 nM, RXRa partner concentration 90 nM); PBM binding z-score recorded at 0.0986
